System Tested: Signal transducer and activator of transcription 1-alpha/beta (Homo sapiens) (UniProt P42224)
Sequence (P42224 whole entry): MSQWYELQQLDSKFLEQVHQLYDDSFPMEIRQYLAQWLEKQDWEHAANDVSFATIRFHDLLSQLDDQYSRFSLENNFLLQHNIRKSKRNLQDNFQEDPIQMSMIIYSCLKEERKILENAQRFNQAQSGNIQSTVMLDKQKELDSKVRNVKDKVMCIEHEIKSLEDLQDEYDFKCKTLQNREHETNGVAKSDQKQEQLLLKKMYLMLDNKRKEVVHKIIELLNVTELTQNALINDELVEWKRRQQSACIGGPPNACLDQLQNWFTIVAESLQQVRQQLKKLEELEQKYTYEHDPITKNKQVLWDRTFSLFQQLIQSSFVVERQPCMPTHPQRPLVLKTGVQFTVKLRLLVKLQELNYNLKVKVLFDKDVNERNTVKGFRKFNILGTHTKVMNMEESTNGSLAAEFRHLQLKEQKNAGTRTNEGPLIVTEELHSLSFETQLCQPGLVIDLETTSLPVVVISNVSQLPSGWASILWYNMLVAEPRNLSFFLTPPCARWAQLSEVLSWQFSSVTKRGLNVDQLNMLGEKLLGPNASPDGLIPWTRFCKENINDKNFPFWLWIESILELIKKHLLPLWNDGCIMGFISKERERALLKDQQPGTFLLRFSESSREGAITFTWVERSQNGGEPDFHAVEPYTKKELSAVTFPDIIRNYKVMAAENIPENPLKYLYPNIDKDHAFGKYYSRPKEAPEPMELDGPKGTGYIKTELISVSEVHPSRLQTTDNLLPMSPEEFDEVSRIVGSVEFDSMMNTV
Assay Protocol: Inhibition of STAT1 (unknown origin) expressed in IFN-gamma induced human HeLa cells at 50 uM incubated for 1 hr by luciferase reporter gene assay
Assay type: cell-based
# if value of inhibition reaches 20%, tag Yes; if it stays below, tag No

Solved entries (count: 5):
- COc1c(OCc2ccc([N+](=O)[O-])cc2)c(Cl)cc(CNc2nn[nH]n2)c1[N+](=O)[O-]: No
- COC(=O)c1ccc(COc2c(Cl)cc(CNc3nn[nH]n3)cc2OC)cc1: No
- COc1cc(CNC#N)cc(Cl)c1OCc1ccc([N+](=O)[O-])cc1: Yes
- CCOc1cc(CNc2nn[nH]n2)cc(Cl)c1OCc1ccc([N+](=O)[O-])cc1: Yes
- COc1cc(CNc2nn[nH]n2)cc(Cl)c1OCc1ccc(F)cc1: No

Asked: Hello, I need to know if COc1cc(CNc2nn[nH]n2)cc(Cl)c1OCc1ccc(Cl)cc1 has measured inhibition not below 20%. Thanks!
Given back: No

Asked: Decide: is the reported value of inhibition for COc1cc(CNc2nn[nH]n2)cc(OC)c1OCc1ccc([N+](=O)[O-])cc1 equal to or greater than 20%?
Given back: No

Asked: Threshold query (inhibition >= 20%) on CCOc1cc(CNc2nn[nH]n2)cc(I)c1OCc1ccc([N+](=O)[O-])cc1
Given back: No

Asked: Tell me whether inhibition is at least 20% here: COc1cc(CC(c2nn[nH]n2)c2nn[nH]n2)cc(Cl)c1OCc1ccc(C)cc1
Given back: No

Asked: inhibition >= 20% for COc1cc(CNc2nn[nH]n2)cc(Cl)c1OCc1ccc(C(F)(F)F)cc1 ?
Given back: No

###

System Tested: Signal transducer and activator of transcription 3 (Homo sapiens, UniProt P40763)
Sequence (P40763 whole entry): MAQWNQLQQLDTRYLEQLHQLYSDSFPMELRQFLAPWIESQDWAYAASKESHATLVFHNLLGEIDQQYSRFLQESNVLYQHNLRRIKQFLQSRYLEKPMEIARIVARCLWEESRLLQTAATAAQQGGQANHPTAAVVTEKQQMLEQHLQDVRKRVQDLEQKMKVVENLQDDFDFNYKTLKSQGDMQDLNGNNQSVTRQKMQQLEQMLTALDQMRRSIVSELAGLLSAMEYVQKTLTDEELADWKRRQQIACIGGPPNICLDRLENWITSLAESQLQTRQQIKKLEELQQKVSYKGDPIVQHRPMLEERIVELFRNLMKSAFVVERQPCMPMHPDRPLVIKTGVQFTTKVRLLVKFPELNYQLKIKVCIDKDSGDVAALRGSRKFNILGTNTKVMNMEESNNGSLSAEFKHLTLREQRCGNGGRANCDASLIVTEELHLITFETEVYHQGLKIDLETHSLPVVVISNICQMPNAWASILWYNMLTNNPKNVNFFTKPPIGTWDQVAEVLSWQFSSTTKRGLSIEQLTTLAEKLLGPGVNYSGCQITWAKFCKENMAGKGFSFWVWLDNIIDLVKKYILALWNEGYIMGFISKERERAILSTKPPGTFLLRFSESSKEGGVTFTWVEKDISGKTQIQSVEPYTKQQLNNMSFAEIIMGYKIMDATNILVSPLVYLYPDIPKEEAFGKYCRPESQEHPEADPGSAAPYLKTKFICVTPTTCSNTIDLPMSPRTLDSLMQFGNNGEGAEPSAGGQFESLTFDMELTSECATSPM
Assay Protocol: Inhibition of STAT3 (unknown origin) expressed in Oncostatin M induced human HeLa cells at 50 uM incubated for 1 hr by luciferase reporter gene assay
Assay type: cell-based
Parameter threshold = 50%. Response is T when inhibition meets or exceeds it, else F.

Check out these entries, answers already filled in.
• COc1cc(CNc2nn[nH]n2)cc(Cl)c1OCc1cccc(C(=O)O)c1 = F
• COc1cc(CNc2nn[nH]n2)cc(Cl)c1OCc1ccc(C(N)=O)cc1 = F
• COc1cc(CNc2nn[nH]n2)cc(I)c1OCc1ccc([N+](=O)[O-])cc1 = T
• COc1cc(CNC#N)cc(Cl)c1OCc1ccc([N+](=O)[O-])cc1 = T
• COc1cc(CNc2nn[nH]n2)cc(Cl)c1OCc1ccc(C#N)cc1 = F
• COc1cc(CNc2nn[nH]n2)ccc1OCc1ccc(C)cc1 = F
• COc1cc(CNc2nn[nH]n2)cc(OC)c1OCc1ccc([N+](=O)[O-])cc1 = F
• COc1cc(C=O)cc(Cl)c1OCc1ccc([N+](=O)[O-])cc1 = T

Shifting focus to the compound that follows.
Asked: Check this compound for inhibition at or above 50%: COc1cc(CNc2nn[nH]n2)cc(Cl)c1OCc1ccc(C(=O)O)cc1
Given back: F

###

A collection of molecules and their measured inhibition
System Tested: Signal transducer and activator of transcription 1-alpha/beta (Homo sapiens)
Assay Protocol: Inhibition of STAT1 (unknown origin) expressed in IFN-gamma induced human HeLa cells at 50 uM incubated for 1 hr by luciferase reporter gene assay
Assay type: cell-based
Just the number please, in %, no unit attached.

Asked: Find the recorded inhibition belonging to COc1cc(CO)cc(Cl)c1OCc1ccc([N+](=O)[O-])cc1 and report it.
Given back: 43.6

Asked: Would you mind telling me what inhibition value was observed for Clc1cc(CNc2nn[nH]n2)cc(OCCCc2ccccc2)c1OCc1ccccc1 ?
Given back: 11.1

###

System Tested: Signal transducer and activator of transcription 3 (Homo sapiens, UniProt P40763)
Assay Protocol: Inhibition of STAT3 (unknown origin) expressed in Oncostatin M induced human HeLa cells at 50 uM incubated for 1 hr by luciferase reporter gene assay
Format: cell-based
Calls of active or inactive are those of the source. The rule behind the calls is not given here.
Metric: inhibition

• COc1cc(CNc2nn[nH]n2)cc(Cl)c1OC(C)c1ccccc1 (stereo unspecified) = 0%
• COc1cc(CNc2nn[nH]n2)cc(Cl)c1OCc1ccc(C(C)(C)C)cc1 = 11.9%
• COc1cc(CC(c2nn[nH]n2)c2nn[nH]n2)cc(Cl)c1OCc1ccc(C)cc1 = 38.6%
• COc1cc(CNc2nn[nH]n2)cc(I)c1OCc1ccc(C)cc1 = 62.7%
• COc1cc(CN2C(=O)c3ccccc3C2=O)cc(Cl)c1OCc1ccc([N+](=O)[O-])cc1 = 95.9%

Asked: # value lookup — system Signal transducer and activator of transcription 3 (Homo sapiens, UniProt P40763), readout inhibition, item CCOc1cc(CNc2nn[nH]n2)cc(I)c1OCc1ccc([N+](=O)[O-])cc1
Given back: 32.4%

Asked: Any idea what inhibition came out for COc1cc(CC(C(=O)O)C(=O)O)cc(Cl)c1OCc1ccc(C)cc1 on Signal transducer and activator of transcription 3 (Homo sapiens, UniProt P40763)?
Given back: 14.8%

Asked: Given the entry C[C@@H]1CC(=O)c2c(ccc3c2C(=O)c2cccc(O)c2C3=O)C1 , what inhibition was observed with Signal transducer and activator of transcription 3 (Homo sapiens, UniProt P40763)?
Given back: 71%

Asked: Form field: inhibition recorded for COc1cc(CC(C(=O)O)c2nn[nH]n2)cc(Cl)c1OCc1ccc(C)cc1 (stereo unspecified) with Signal transducer and activator of transcription 3 (Homo sapiens, UniProt P40763) (enter value)
Given back: 40.2%

Asked: Quick check: inhibition on Signal transducer and activator of transcription 3 (Homo sapiens, UniProt P40763), item CCOc1cc(CNc2nn[nH]n2)cc(Cl)c1OCc1ccc([N+](=O)[O-])cc1 ?
Given back: 20.4%

Asked: Item CCOc1cc(/C=C(\C#N)C(=O)NC2CCCCC2C)ccc1OCC(=O)O (stereo unspecified) with Signal transducer and activator of transcription 3 (Homo sapiens, UniProt P40763) - inhibition?
Given back: Active

Asked: What measured inhibition is associated with COc1cc(CN(CC(=O)O)Cc2cc(Cl)c(OCc3ccc(C)cc3)c(OC)c2)cc(Cl)c1OCc1ccc(C)cc1 on Signal transducer and activator of transcription 3 (Homo sapiens, UniProt P40763)?
Given back: 54.7%

###

System Tested: Signal transducer and activator of transcription 3 (Homo sapiens, UniProt P40763)
Assay Protocol: Inhibition of STAT3 (unknown origin) expressed in Oncostatin M induced human HeLa cells at 50 uM incubated for 1 hr by luciferase reporter gene assay
Type: cell-based
Active and inactive are the calls of the source. The rule behind the calls is not given here.
Metric: inhibition

A selection of reference data follows.
- COc1cc(C=O)cc(Cl)c1OCc1ccc(C)cc1: 52.4%
- COc1cc(CNc2nn[nH]n2)cc(Cl)c1OCc1ccc(Cl)cc1: 37.6%
- COc1cc(CNc2nn[nH]n2)ccc1OCc1c(Cl)cccc1Cl: Active
- COc1cc(CNc2nn[nH]n2)cc(Cl)c1OCc1ccc(OC2CCOCC2)cc1: 4.1%

Asked: Would you kindly share the measured inhibition for COC(=O)Cc1c(C)c2ccc(OCc3nn[nH]n3)cc2oc1=O ?
Given back: Active

Asked: If you can, please state the reported inhibition value of COC(=O)c1ccc(COc2c(Cl)cc(CNc3nn[nH]n3)cc2OC)cc1 .
Given back: 51.5%

Asked: Would you kindly share the measured inhibition for COc1cc(CO)cc(Cl)c1OCc1ccc([N+](=O)[O-])cc1 ?
Given back: 66.4%

Asked: Query: inhibition; subject: O=C(O)c1ccc(NC(=O)C2CC(=O)N(CCc3ccccc3)/C(=N/c3ccccc3)S2)cc1 (configuration not stated)
Given back: Active

Asked: If you can, please state the reported inhibition value of COc1cc(CNc2nn[nH]n2)cc(Cl)c1OCc1ccc([N+](=O)[O-])cc1 .
Given back: 70.2%

Asked: Look up inhibition for this compound: C=CCN1C(=O)C(CC(=O)Nc2ccc(C(=O)O)cc2)S/C1=N/c1cccc(Cl)c1 (configuration not stated)
Given back: Active

Asked: I would be grateful if you could share the reported inhibition for COC(=O)c1cccc(COc2c(Cl)cc(CNc3nn[nH]n3)cc2OC)c1 .
Given back: 49.2%

Asked: Please give the measured inhibition for this compound: COc1cc(CCc2nn[nH]n2)cc(Cl)c1OCc1ccc(C)cc1
Given back: 32.8%

###

Attribute: inhibition
System Tested: Signal transducer and activator of transcription 3 (Homo sapiens, UniProt P40763)
Assay Protocol: Inhibition of STAT3 (unknown origin) expressed in Oncostatin M induced human HeLa cells at 50 uM incubated for 1 hr by luciferase reporter gene assay
Assay type: cell-based
// return the numeric value with its unit appended

Please review the following examples before continuing.
• COc1ccc([N+](=O)[O-])cc1COc1c(Cl)cc(CNc2nn[nH]n2)cc1OC = 20.4%
• COc1cc(CNc2nn[nH]n2)cc(Cl)c1OCc1cccc(C(N)=O)c1 = 15.9%
• CCc1cc2c(cc1COc1c(Cl)cc(CNc3nn[nH]n3)cc1OC)C(C)(C)CCC2(C)C = 77%
• COc1cc(CNc2nn[nH]n2)cc(Cl)c1OCc1ccc(-n2nc(C)cc2C)cc1 = 2.6%
• COc1cc(CNc2nn[nH]n2)cc(Br)c1OCc1ccc(C)cc1 = 58.8%

Asked: State the recorded inhibition for this entry: CCCOc1cc(COc2c(Cl)cc(CNc3nn[nH]n3)cc2OC)ccc1[N+](=O)[O-]
Given back: 38.3%

Asked: What does the record list as inhibition for COc1cc(CNc2nn[nH]n2)cc(Cl)c1OCc1ccc([N+](=O)[O-])cc1[N+](=O)[O-] ?
Given back: 40.1%

Asked: # query: inhibition of entry COc1cc(CNc2nn[nH]n2)cc(Cl)c1OCc1ccccc1[N+](=O)[O-]
Given back: 31%

Asked: Need inhibition of COc1cc(CNc2nn[nH]n2)cc(Cl)c1OCc1cccc(-c2ccccc2)c1 , thanks.
Given back: 8.2%

Asked: For COc1cc(CNc2nn[nH]n2)cc(Cl)c1OCc1cccc([N+](=O)[O-])c1 , what is its reported inhibition?
Given back: 40.1%
